Biological target: T1, CRBN, Q96SW2;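 further: pooled lentiviral library of zinc finger degron-EGFP fusions in mCherry-positive Jurkat cells, FACS-sorted after compound exposure, with degron abundance counted by next-generation sequencing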
T1 chain: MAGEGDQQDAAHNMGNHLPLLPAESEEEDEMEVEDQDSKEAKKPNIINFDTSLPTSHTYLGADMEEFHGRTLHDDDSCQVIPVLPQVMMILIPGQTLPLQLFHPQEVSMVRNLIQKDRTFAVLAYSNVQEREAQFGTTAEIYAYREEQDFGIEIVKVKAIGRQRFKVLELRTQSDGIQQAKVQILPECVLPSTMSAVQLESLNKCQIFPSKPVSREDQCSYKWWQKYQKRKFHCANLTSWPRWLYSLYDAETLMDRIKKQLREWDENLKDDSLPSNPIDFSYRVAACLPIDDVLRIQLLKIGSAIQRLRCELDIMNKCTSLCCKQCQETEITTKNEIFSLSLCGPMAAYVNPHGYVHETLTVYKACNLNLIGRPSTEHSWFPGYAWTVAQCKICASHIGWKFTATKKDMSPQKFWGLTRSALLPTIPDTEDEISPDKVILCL
Test: log2 fold change of degron read counts, EGFP-low vs EGFP+ sorted cells (limma voom), compound-induced degradation; higher = more compound-induced degradation of the degron-EGFP fusion; degrons are variants of IKZF1/3 zinc finger 2; compound dose not given here
Details: Jurkat; 18 h; compound: compound 22 (5-morpholino-thalidomide)
The full ranking holds about 8,300 sequences; the median of “log2 fold change of degron read counts, EGFP-low vs EGFP+ sorted cells (limma voom), compound-induced degradation” is about -1.1, and the highest 2% start at about 3.2. The sample as a whole holds a higher share of the highest values than the screen did.
Please go through the items and note down their log2 fold change of degron read counts.
# output: bare number, no unit

What the record says about FVCNVCGAWFTQKGNLLRHIKL [46F_47V_49N_50V_52G_53A_54W_55F_67L_, Q9UKT9] : log2 fold change of degron read counts is -1.99

What the record says about FNCEVCGAEFTQKGNLLRHIKL [46F_47N_49E_50V_52G_53A_54E_55F_67L_, Q9UKT9] : log2 fold change of degron read counts is -1.18

What the record says about FYCEVCGAEFTQKGNLLRHIKL [46F_47Y_49E_50V_52G_53A_54E_55F_67L_, Q9UKT9] : log2 fold change of degron read counts is 2.95

What the record says about FDCNVCGASFTQKGNLLRHIKL [46F_47D_49N_50V_52G_53A_54S_55F_67L_, Q9UKT9] : log2 fold change of degron read counts is -1.38

What the record says about FQCPVCGAEFTQKGNLLRHIKL [46F_47Q_49P_50V_52G_53A_54E_55F_67L_, Q9UKT9] : log2 fold change of degron read counts is 1.57

What the record says about FSCPVCGAEFTQKGNLLRHIKL [46F_47S_49P_50V_52G_53A_54E_55F_67L_, Q9UKT9] : log2 fold change of degron read counts is 0.204

What the record says about FMCDVCGAAFTQKGNLLRHIKL [46F_47M_49D_50V_52G_53A_54A_55F_67L_, Q9UKT9] : log2 fold change of degron read counts is 1.05

What the record says about FVCEVCGAIFTQKGNLLRHIKL [46F_47V_49E_50V_52G_53A_54I_55F_67L_, Q9UKT9] : log2 fold change of degron read counts is -0.779

What the record says about FCCPQCGAHFTQKGNLLRHIKL [46F_47C_49P_50Q_52G_53A_54H_55F_67L_, Q9UKT9] : log2 fold change of degron read counts is -2.19

What the record says about FQCPQCGAMFTQKGNLLRHIKL [46F_47Q_49P_50Q_52G_53A_54M_55F_67L_, Q9UKT9] : log2 fold change of degron read counts is -0.122

What the record says about FYCEQCGAHFTQKGNLLRHIKL [46F_47Y_49E_50Q_52G_53A_54H_55F_67L_, Q9UKT9] : log2 fold change of degron read counts is 0.783

What the record says about FYCEQCGALFTQKGNLLRHIKL [46F_47Y_49E_50Q_52G_53A_54L_55F_67L_, Q9UKT9] : log2 fold change of degron read counts is 0.128

What the record says about FICPICGATFTQKGNLLRHIKL [46F_47I_49P_50I_52G_53A_54T_55F_67L_, Q9UKT9] : log2 fold change of degron read counts is 1.53

What the record says about FSCEICGRSFTQKGNLLRHIKL [46F_47S_49E_50I_52G_53R_54S_55F_67L_, Q9UKT9] : log2 fold change of degron read counts is -2.51

What the record says about FRCEVCGAIFTQKGNLLRHIKL [46F_47R_49E_50V_52G_53A_54I_55F_67L_, Q9UKT9] : log2 fold change of degron read counts is -1.29

What the record says about FGCNQCGHNFTQKGNLLRHIKL [46F_47G_49N_50Q_52G_53H_54N_55F_67L_, Q9UKT9] : log2 fold change of degron read counts is -2.05

What the record says about FTCNICGAMFTQKGNLLRHIKL [46F_47T_49N_50I_52G_53A_54M_55F_67L_, Q9UKT9] : log2 fold change of degron read counts is -0.0854

What the record says about FQCEVCGAIFTQKGNLLRHIKL [46F_47Q_49E_50V_52G_53A_54I_55F_67L_, Q9UKT9] : log2 fold change of degron read counts is 3.07

What the record says about LWCPICGFMCTQKGNLLRHIKL [46L_47W_49P_50I_52G_53F_54M_55C_67L_, Q9UKT9] : log2 fold change of degron read counts is 3.37

What the record says about FMCEQCGAYFTQKGNLLRHIKL [46F_47M_49E_50Q_52G_53A_54Y_55F_67L_, Q9UKT9] : log2 fold change of degron read counts is -2.36

What the record says about FMCEICGHLFTQKGNLLRHIKL [46F_47M_49E_50I_52G_53H_54L_55F_67L_, Q9UKT9] : log2 fold change of degron read counts is -3.26

What the record says about LTCPICGFPCTQKGNLLRHIKL [46L_47T_49P_50I_52G_53F_54P_55C_67L_, Q9UKT9] : log2 fold change of degron read counts is 1.3

What the record says about FFCSVCGHPFTQKGNLLRHIKL [46F_47F_49S_50V_52G_53H_54P_55F_67L_, Q9UKT9] : log2 fold change of degron read counts is -1.26
